parameter: IC50 (µM)
The figure you give is taken to be in µM; do not add the unit.

Query :: Would you please give the reported IC50 of "O=C1NC(=O)c2ccc(I)cc2/C1=C/NCc1ccc(-c2ccoc2)c(O)c1" with RAC-alpha serine/threonine-protein kinase (Homo sapiens, UniProt P31749)?
Result :: 10.2

----------
# assay text: Metabolic stability in Sprague-Dawley rat liver microsome assessed as half life after 15 mins using NADPH/UDPGA cofactor
# Format: ADME
# applied conditions: liver microsomes
Give half-life for every item shown.

Query :: Kindly indicate its recorded half-life. Item: "COc1cnc(CN/C=C2\C(=O)NC(=O)c3ccc(I)cc32)cc1O"
Result :: > 30 min

Query :: State, in one line, measured half-life of "CCCOc1ccc(CN/C=C2\C(=O)NC(=O)c3ccc(I)cc32)nc1O"
Result :: > 30 min

Query :: Answer with the recorded half-life for the compound listed here: "CCCOc1cnc(CN/C=C2\C(=O)NC(=O)c3ccc(I)cc32)cc1O"
Result :: > 30 min
